targetOrSystem: Arginase-2, mitochondrial (Homo sapiens) (UniProt P78540)
Sequence (P78540 whole entry): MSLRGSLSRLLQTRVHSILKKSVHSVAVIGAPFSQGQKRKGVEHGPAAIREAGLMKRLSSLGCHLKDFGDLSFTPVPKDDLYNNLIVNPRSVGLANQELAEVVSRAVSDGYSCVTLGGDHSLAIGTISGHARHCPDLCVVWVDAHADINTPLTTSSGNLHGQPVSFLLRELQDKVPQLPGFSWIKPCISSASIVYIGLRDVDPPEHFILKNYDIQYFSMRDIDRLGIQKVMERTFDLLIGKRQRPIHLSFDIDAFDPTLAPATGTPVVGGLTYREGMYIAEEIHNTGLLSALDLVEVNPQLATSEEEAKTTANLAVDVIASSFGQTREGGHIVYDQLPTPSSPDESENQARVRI
experimentalProtocol: in vitro enzyme assay to detect the production of urea directly proportional to the activity of Arginase II
Type: functional
Design: scale not given: in the data most compounds retested in dose-response had high values
condition: 30 µM
readoutType: Percent Effect (%)
One number for each entry, in %.

# molecule, resultUnit, Percent Effect
measured = [
    ("CC(C)CN1CCC(NC(=O)c2ccc(Cl)cc2Cl)CC1", "%", -7.03),
    ("CC(C)NC(=O)[C@]12COC[C@H]1CN(Cc1cnn(C)c1)C2", "%", -13.5),
    ("O=C(NC1CC1)[C@@H]1CCO[C@@H]2CCN(CCc3ccccc3)C[C@@H]21", "%", 10.3),
    ("O=C(NCc1ccccn1)[C@]12COC[C@H]1CN(Cc1ccccc1F)C2", "%", 4.87),
    ("CCC(C(=O)NCc1ccncc1)N(c1ccc(F)cc1)S(C)(=O)=O (stereo not drawn)", "%", 8.11),
]

Please give Percent Effect, item by item, for the list that follows.
1. O=C(NCc1ccccn1)[C@]12COC[C@H]1CN(Cc1cccnc1)C2
2. Cc1nnsc1C(=O)N1CCCC(c2nccn2Cc2cscn2)C1 (stereo not drawn)
3. CNC(=O)[C@H]1C[C@@H]2CN(C(=O)c3ccsc3)C[C@@H]2N1S(C)(=O)=O
4. COc1ccc(C2SC(C)=Nc3c2c(=O)[nH]n3C2CCCC2)cc1O (stereo not drawn)
5. O=C(Cn1nc2c(cc1=O)CCCC2)NC(Cc1ccccc1)C(=O)O (stereo not drawn)
6. CC(C)CS(=O)(=O)CC(=O)N1CCCC1c1noc(C2CC2)n1 (stereo not drawn)
7. Cc1cccc(NC2CCc3c2[nH]c(=O)n(C2CCCCC2)c3=O)c1C (stereo not drawn)
8. Cc1ccc(CNCc2nnc3n2CC(C(F)(F)F)CC3)o1 (stereo not drawn)

-- reply
1: -5.95; 2: -2.7; 3: 8.11; 4: 2.7; 5: -13.5; 6: 5.95; 7: -0.54; 8: -7.03

Please give Percent Effect, item by item, for the list that follows.
1. NC(=O)CCCNC(=O)c1cc(Br)c2c(c1)OCCO2
2. CC1=Nc2c(c(=O)[nH]n2C2CCCCC2)C(c2ccc(C(=O)O)cc2)S1 (stereo not drawn)
3. CCn1c(NCc2ccc(OC)cc2)nc2c(C)nn(C)c2c1=O
4. Cc1cc(CN(Cc2ccccc2)CC(O)c2cccs2)on1 (stereo not drawn)

-- reply
3.78
5.95
-4.87
3.78
